- Test system: Jurkat HIV-luciferase clones
- protocol details: Jurkat latency reversal assay
- Format: cell-based
- measurement conditions: Homo sapiens, 48 h; Jurkat latency reversal assay potency; read-out: Jurkat pEC50 (converted)
Field: EC50. Provide a value for each of the compounds that follow.

Worked examples follow.
Ask | Quick one: EC50 for C[C@@H]1CN(CC(=O)N2CC(C)(C)c3[nH]c(=O)c(Cc4ccc(F)cc4)cc32)[C@@H](CN2CCN(C(=O)/C=C/c3ccc(/C=C/C(=O)N4CCN(C[C@H]5CN[C@H](C)CN5CC(=O)N5CC(C)(C)c6[nH]c(=O)c(Cc7ccc(F)cc7)cc65)[C@H](C)C4)cc3)C[C@H]2C)CN1 ?
Reply | 63.1 to 316 nM

Ask | And for C[C@@H]1CN(CC(=O)N2CC(C)(C)c3ncc(N(C)c4ccc(F)cc4)cc32)[C@@H](CN2CCO[C@H](COc3cccc(OC[C@@H]4CN(C[C@H]5CN[C@H](C)CN5CC(=O)N5CC(C)(C)c6ncc(N(C)c7ccc(F)cc7)cc65)CCO4)c3)C2)CN1 ?
Reply | 316 to 3310 nM

Ask | And for C[C@@H]1CN(CC(=O)N2CC(C)(C)c3[nH]c(=O)c(Cc4ccc(F)cc4C#N)cc32)[C@@H](CN2CCO[C@H](C(=O)NCc3ccc(CNC(=O)[C@@H]4CN(C[C@H]5CN[C@H](C)CN5CC(=O)N5CC(C)(C)c6[nH]c(=O)c(Cc7ccc(F)cc7C#N)cc65)CCO4)cc3)C2)CN1 ?
Reply | 12.6 to 63.1 nM

New cases:
Ask | Quick one: EC50 for C[C@@H]1CN(CC(=O)N2CC(C)(C)c3[nH]c(=O)c(Cc4ccc(F)cc4)cc32)[C@@H](CN2CCO[C@H](C(=O)N3CCCN(C(=O)[C@@H]4CN(C[C@H]5CN[C@H](C)CN5CC(=O)N5CC(C)(C)c6[nH]c(=O)c(Cc7ccc(F)cc7)cc65)CCO4)CC3)C2)CN1 ?
Reply | 12.6 to 63.1 nM

----------
Field: IC50. Provide a value for each of the molecules that follow.
- tested on: cIAP2-BIR3 (Homo sapiens (Human), UniProt Q13489)
- Sequence (Q13489 238-349): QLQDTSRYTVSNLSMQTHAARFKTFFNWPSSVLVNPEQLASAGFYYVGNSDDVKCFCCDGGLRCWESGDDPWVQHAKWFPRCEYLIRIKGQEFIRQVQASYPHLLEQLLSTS
- protocol details: BIR binding assay (FRET competition), cIAP2 BIR3

Ask | Quick one: IC50 for C[C@@H]1CN(CC(=O)N2CC(C)(C)c3[nH]c(=O)c(Cc4ccc(F)cc4C#N)cc32)[C@@H](CN2CCO[C@H](C(=O)NCc3ccc(CNC(=O)[C@@H]4CN(C[C@H]5CN[C@H](C)CN5CC(=O)N5CC(C)(C)c6[nH]c(=O)c(Cc7ccc(F)cc7C#N)cc65)CCO4)cc3)C2)CN1 [Compound 179] ?
Reply | 15.8 to 31.6 nM

--- query ---
Ask | Quick one: IC50 for C[C@@H]1CN(CC(=O)N2CC(C)(C)c3[nH]c(=O)c(Cc4ccc(F)cc4)cc32)[C@@H](CN2CCO[C@H](C(=O)NCCCCCCCCCCNC(=O)[C@@H]3CN(C[C@H]4CN[C@H](C)CN4CC(=O)N4CC(C)(C)c5[nH]c(=O)c(Cc6ccc(F)cc6)cc54)CCO3)C2)CN1 [Example 120] ?
Reply | 7.94 to 15.8 nM

----------
- tested on: XIAP-BIR2 (Homo sapiens (Human))
- Sequence (P98170 124-240): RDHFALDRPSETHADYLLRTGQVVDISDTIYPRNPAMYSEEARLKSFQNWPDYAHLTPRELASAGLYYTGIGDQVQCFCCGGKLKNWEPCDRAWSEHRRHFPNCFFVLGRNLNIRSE
- protocol details: BIR binding assay (FRET competition), XIAP BIR2
- measurement conditions: FRET competition binding; read-out: XIAP BIR2 (pIC50) (converted)
- Protocol: The BIR domain binding assays are FRET based competition assays that utilize His-tagged versions of each of the BIR2 and BIR3 domains from cIAP1, cIAP2, and XIAP (each domain assayed separately) each at a custom optimal concentration and a probe, 200 nM SMAC/DIABLO peptide AVPIAQKSE labelled with AlexaFluor647 (part #crb 1110326h, Discovery Peptides). […]
Field: IC50. Provide a value for each of the compounds that follow.

Worked examples follow.
Ask | Quick one: IC50 for C[C@@H]1CN(CC(=O)N2CC(C)(C)c3[nH]c(=O)c(Cc4ccc(F)cc4)cc32)[C@@H](CN2CCO[C@H](C(=O)NCCCCNC(=O)[C@@H]3CN(C[C@H]4CN[C@H](C)CN4CC(=O)N4CC(C)(C)c5[nH]c(=O)c(Cc6ccc(F)cc6)cc54)CCO3)C2)CN1 [Example 126] ?
Reply | 10 to 51.3 µM

Ask | And for C[C@@H]1CN(CC(=O)N2CC(C)(C)c3[nH]c(=O)c(Cc4ccc(F)cc4)cc32)[C@@H](CN2CCO[C@H](COCc3cccc(COC[C@@H]4CN(C[C@H]5CN[C@H](C)CN5CC(=O)N5CC(C)(C)c6[nH]c(=O)c(Cc7ccc(F)cc7)cc65)CCO4)c3)C2)CN1 [Example 80] ?
Reply | 10 to 51.3 µM

Ask | And for C[C@@H]1CN(CC(=O)N2CC(C)(C)c3[nH]c(=O)c(Cc4ccc(F)cc4)cc32)[C@@H](CN2CCO[C@H](C(=O)NCCCN3CCN(CCCNC(=O)[C@@H]4CN(C[C@H]5CN[C@H](C)CN5CC(=O)N5CC(C)(C)c6[nH]c(=O)c(Cc7ccc(F)cc7)cc65)CCO4)CC3)C2)CN1 [Example 123] ?
Reply | 10 to 51.3 µM

Ask | And for C[C@@H]1CN(CC(=O)N2CC(C)(C)c3[nH]c(=O)c(Cc4ccc(F)cc4)cc32)[C@@H](CN2CCO[C@H](COCc3cccc(COC[C@@H]4CN(C[C@H]5CN[C@H](C)CN5CC(=O)N5CC(C)(C)c6[nH]c(=O)c(Cc7ccc(F)cc7)cc65)CCO4)n3)C2)CN1 [Example 84] ?
Reply | 10 to 51.3 µM

Ask | And for C[C@@H]1CN(CC(=O)N2CC(C)(C)c3c2cc(Cc2ccc(F)cc2)c(=O)n3C)[C@@H](CN2CCO[C@H](COCc3ccc(COC[C@@H]4CN(C[C@H]5CN[C@H](C)CN5CC(=O)N5CC(C)(C)c6c5cc(Cc5ccc(F)cc5)c(=O)n6C)CCO4)cc3)C2)CN1 [Example 117] ?
Reply | 10 to 51.3 µM

Please look at the items below and tell me IC50 for each one, in order.
1. C[C@@H]1CN(CC(=O)N2CC(C)(C)c3[nH]c(=O)c(Cc4ccc(F)cc4)cc32)[C@@H](CN2CCC[C@H](NC(=O)Cc3cccc(CC(=O)N[C@H]4CCCN(C[C@H]5CN[C@H](C)CN5CC(=O)N5CC(C)(C)c6[nH]c(=O)c(Cc7ccc(F)cc7)cc65)C4)c3)C2)CN1 [Example 41]
2. C[C@@H]1CN(CC(=O)N2CC(C)(C)c3[nH]c(=O)c(Cc4ccc(F)cc4)cc32)[C@@H](CN2CCO[C@H](COc3ccccc3Cc3ccccc3OC[C@@H]3CN(C[C@H]4CN[C@H](C)CN4CC(=O)N4CC(C)(C)c5[nH]c(=O)c(Cc6ccc(F)cc6)cc54)CCO3)C2)CN1 [Example 66]
3. C[C@@H]1CN(CC(=O)N2CC(C)(C)c3[nH]c(=O)c(Cc4ccc(F)cc4)cc32)[C@@H](CN2CCO[C@H](C(=O)N(C)CC3CCN(C(=O)[C@@H]4CN(C[C@H]5CN[C@H](C)CN5CC(=O)N5CC(C)(C)c6[nH]c(=O)c(Cc7ccc(F)cc7)cc65)CCO4)CC3)C2)CN1 [Example 132]
4. C[C@@H]1CN(CC(=O)N2CC(C)(C)c3[nH]c(=O)c(Cc4ccc(F)cc4)cc32)[C@@H](CN2CCO[C@H](C(=O)NCCNC(=O)[C@@H]3CN(C[C@H]4CN[C@H](C)CN4CC(=O)N4CC(C)(C)c5[nH]c(=O)c(Cc6ccc(F)cc6)cc54)CCO3)C2)CN1 [Example 128]
5. C[C@@H]1CN(CC(=O)N2CC(C)(C)c3[nH]c(=O)c(Cc4ccc(F)cc4)cc32)[C@@H](CN2CCO[C@H](COc3ccccc3OC[C@@H]3CN(C[C@H]4CN[C@H](C)CN4CC(=O)N4CC(C)(C)c5[nH]c(=O)c(Cc6ccc(F)cc6)cc54)CCO3)C2)CN1 [Example 71]

Reply |
10 to 51.3 µM
10 to 51.3 µM
10 to 51.3 µM
10 to 51.3 µM
10 to 51.3 µM

Please look at the items below and tell me IC50 for each one, in order.
1. C[C@@H]1CN(CC(=O)N2CC(C)(C)c3[nH]c(=O)c(Cc4ccc(F)cc4)cc32)[C@@H](CN2CCC(CN(C)C(=O)c3ccc(C(=O)N(C)CC4CCN(C[C@H]5CN[C@H](C)CN5CC(=O)N5CC(C)(C)c6[nH]c(=O)c(Cc7ccc(F)cc7)cc65)CC4)cc3)CC2)CN1 [Example 96]
2. C[C@@H]1CN(CC(=O)N2CC(C)(C)c3[nH]c(=O)c(Cc4ccc(F)cc4)cc32)[C@@H](CN2CCC(CN(C)C(=O)Cc3cccc(C(=O)N(C)CC4CCN(C[C@H]5CN[C@H](C)CN5CC(=O)N5CC(C)(C)c6[nH]c(=O)c(Cc7ccc(F)cc7)cc65)CC4)c3)CC2)CN1 [Example 98]
3. C[C@@H]1CN(CC(=O)N2CC(C)(C)c3[nH]c(=O)c(Cc4ccc(F)cc4)cc32)[C@@H](CN2CCO[C@H](COc3cccc(OC[C@@H]4CN(C[C@H]5CN[C@H](C)CN5CC(=O)N5CC(C)(C)c6[nH]c(=O)c(Cc7ccc(F)cc7)cc65)CCO4)c3Cl)C2)CN1 [Example 88]
4. C[C@@H]1CN(CC(=O)N2CC(C)(C)c3[nH]c(=O)c(Cc4ccc(F)cc4)cc32)[C@@H](CN2CCN(C(=O)COc3cccc(OCC(=O)N4CCN(C[C@H]5CN[C@H](C)CN5CC(=O)N5CC(C)(C)c6[nH]c(=O)c(Cc7ccc(F)cc7)cc65)[C@H](C)C4)c3)C[C@H]2C)CN1 [Example 11]

Reply |
10 to 51.3 µM
10 to 51.3 µM
10 to 51.3 µM
10 to 51.3 µM
